Assay: in vivo
Details: female, Wistar, rat, ip, 8 mg/kg, t1/2 in plasma
property_name: half-life (h)
Kindly answer with a numeric value in h, unit omitted.

I have this compound here, CC(OC(=O)CCCC[C@]1(C)CCSS1)OC(=O)Nc1nc2ccc(OC(F)(F)F)cc2s1 (stereo partly shown) , and I need its recorded half-life.
11
